Target: Pantothenate synthetase (Mycobacterium tuberculosis (strain ATCC 25618 / H37Rv)) (UniProt P9WIL5)
Sequence (P9WIL5 whole entry, looked up): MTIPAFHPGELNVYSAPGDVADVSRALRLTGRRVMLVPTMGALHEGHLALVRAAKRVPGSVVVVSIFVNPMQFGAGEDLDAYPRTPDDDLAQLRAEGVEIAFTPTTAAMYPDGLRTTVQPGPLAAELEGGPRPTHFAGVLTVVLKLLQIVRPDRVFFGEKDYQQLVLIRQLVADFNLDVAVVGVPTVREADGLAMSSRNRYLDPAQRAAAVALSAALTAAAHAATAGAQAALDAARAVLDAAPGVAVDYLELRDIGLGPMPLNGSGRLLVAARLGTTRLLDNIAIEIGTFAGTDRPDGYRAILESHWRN
Assay: Coupled enzyme confirmation of inhibitors against recombinant Mtb PanC (AID 375);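 note: 0% = full reaction with vehicle and 100% = no enzyme background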
Conditions: coupled enzyme assay; at 10 µM, hits give high values
READOUT_LABEL: inhibition (%)
One number for each entry, in %.

> print(dat)
                                   molecule  readout.label  unit.text  data.value
1  CCC(C)NC(=O)CSC1=Nc2ccccc2C2=NC(CC(=O)NCc3ccccc3)C(=O)N12 (stereo unspecified)     inhibition          %           0
2     c1ccc(CCn2nnnc2CN2CCN(C3CCCC3)CC2)cc1     inhibition          %           2
3  C=C1CC[C@@]2(O)[C@H]3Cc4ccc(O)c5c4[C@@]2(CCN3CC2CC2)[C@H]1O5     inhibition          %           0
4     CCOc1ccc(NC(=O)COC(=O)Cn2cnnn2)cc1OCC     inhibition          %           0
5          C=CCNC(=O)CNS(=O)(=O)c1ccc(F)cc1     inhibition          %           2

Then this molecule:
For this molecule ( "CCCS(=O)(=O)C(=C1Nc2ccccc2N1)S(=O)(=O)CCC" ), measured inhibition is 1

The values you see were collected from PubChem BioAssay.
